molecular target: protein-protein interaction between SOS1 and KRAS-G12D (Homo sapiens, UniProt Q07889); construct: The purified GST-SOS1 catalytic domain (residues 564-1049) was first diluted in assay buffer; made in house; host or cells: E. coli BL21 (DE3) for SOS1; E. coli BL21 carrying a BirA plasmid for KRAS-G12D; test: HTRF Based Protein-Protein Interaction Assay; type: binding
Sequence (Q07889 564-1049, stated change not applied): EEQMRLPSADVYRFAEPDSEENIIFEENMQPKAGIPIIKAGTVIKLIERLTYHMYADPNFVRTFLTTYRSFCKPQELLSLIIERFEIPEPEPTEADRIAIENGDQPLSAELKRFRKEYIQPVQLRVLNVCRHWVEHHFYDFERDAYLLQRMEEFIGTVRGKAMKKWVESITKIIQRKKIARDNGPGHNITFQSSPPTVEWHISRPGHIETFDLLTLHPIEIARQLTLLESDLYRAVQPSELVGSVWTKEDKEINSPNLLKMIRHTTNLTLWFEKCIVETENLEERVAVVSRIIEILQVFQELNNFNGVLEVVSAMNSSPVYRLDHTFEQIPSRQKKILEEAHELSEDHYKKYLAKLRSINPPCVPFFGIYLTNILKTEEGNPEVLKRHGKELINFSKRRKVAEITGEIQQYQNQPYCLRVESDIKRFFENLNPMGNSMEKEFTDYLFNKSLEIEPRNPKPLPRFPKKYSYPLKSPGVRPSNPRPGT
pIC50: −log10 of the molar value.
assay metric: pIC50

-- ask Respond only with pIC50 recorded for C#C[C@@H](Nc1ncnc2c1cc(C1=CC3CCC(C1)N3C(C)=O)c(=O)n2C)c1cccc(C(F)F)c1F (stereo partly shown)
-- reply > 7.00

Where do these numbers come from? They come from patent US20220324862A1.
